- tested-target: Cytochrome P450 2A6 (Homo sapiens, UniProt P11509)
- Sequence (P11509 whole entry): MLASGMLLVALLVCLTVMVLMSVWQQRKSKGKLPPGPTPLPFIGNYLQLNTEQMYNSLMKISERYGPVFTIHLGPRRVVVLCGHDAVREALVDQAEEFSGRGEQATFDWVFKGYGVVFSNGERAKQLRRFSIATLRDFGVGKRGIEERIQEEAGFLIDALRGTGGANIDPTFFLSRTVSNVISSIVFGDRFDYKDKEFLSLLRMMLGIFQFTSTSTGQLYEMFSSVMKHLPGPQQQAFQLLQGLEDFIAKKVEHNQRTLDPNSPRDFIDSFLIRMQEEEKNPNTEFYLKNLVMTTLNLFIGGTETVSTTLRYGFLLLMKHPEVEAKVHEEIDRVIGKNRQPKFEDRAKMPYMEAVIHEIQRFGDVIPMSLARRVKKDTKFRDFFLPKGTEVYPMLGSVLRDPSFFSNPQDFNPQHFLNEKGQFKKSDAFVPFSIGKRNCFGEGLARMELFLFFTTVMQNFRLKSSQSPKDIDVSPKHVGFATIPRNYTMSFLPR
pIC50: −log10 of the molar value.
We begin with pIC50 values for Cytochrome P450 2A6 (Homo sapiens, UniProt P11509), as collected from the published literature.

Here's what some known entries look like.
smiles-data	result
CC(=O)N1C[C@H](C(=O)Nc2ccc(C)cc2C)[C@@H](c2nnc([C@H]3C[C@@H](CC(C)C)C3)n2C2CC2)C1	< 4.30
O=C(c1ccccc1)N1CCc2oc(-c3ccc(F)cn3)nc2C1	< 4.30
Cc1nccc2ccccc12	4.22
COc1ccc(CCN(C)CCNC(=O)c2ccccc2NC(=O)c2cnc3ccccc3c2)cc1OC	< 4.00
Cc1cc2ccccc2cn1	4.60
O/N=C/c1ccc(-c2cccnc2)s1	5.85

For the molecule `COc1cccc2ccc(=O)oc12` , the measured pIC50 on Cytochrome P450 2A6 (Homo sapiens, UniProt P11509) was 5.13

The reported pIC50 value, Cytochrome P450 2A6 (Homo sapiens, UniProt P11509), for `Clc1cc2ccccc2cc1Cl` reads < 4.22

Log: Cytochrome P450 2A6 (Homo sapiens, UniProt P11509), molecule `Cc1nc(-c2cccc(C#N)c2)n(OCc2ccc(C#N)cc2)c1C(=O)O` , pIC50 = < 5.00

Entry `C#CCOc1cccc2oc(=O)ccc12` , tested on Cytochrome P450 2A6 (Homo sapiens, UniProt P11509), has a reported pIC50 of 7.40

The reported pIC50 value, Cytochrome P450 2A6 (Homo sapiens, UniProt P11509), for `C=CCOc1cccc2oc(=O)ccc12` reads 7.30

Measured pIC50 for this entry `Clc1cc2cc(Cl)c(Cl)c(Cl)c2cc1Cl` on Cytochrome P450 2A6 (Homo sapiens, UniProt P11509): < 3.22

Case `C[n+]1c[nH]cc1-c1cccnc1` , Cytochrome P450 2A6 (Homo sapiens, UniProt P11509), pIC50 recorded as 6.12

Test item `O=c1cc(-c2cccc3c2C=CCO3)oc2ccccc12` ; Cytochrome P450 2A6 (Homo sapiens, UniProt P11509); reported pIC50 was < 4.60

Summary line: `COc1cc2c(cc1OC)CC(=O)CC2` , Cytochrome P450 2A6 (Homo sapiens, UniProt P11509), reported pIC50 = 2.70

Tested system Cytochrome P450 2A6 (Homo sapiens, UniProt P11509); pIC50 recorded for `NCC#Cc1cncnc1` was < 5.00

The molecule `O=c1cc(-c2cccc3c2C=CCO3)oc2cccc(O)c12` , tested on Cytochrome P450 2A6 (Homo sapiens, UniProt P11509), showed pIC50 of < 4.60

Form: item `O=c1cc(-c2ccccc2)oc2c1ccc1ccccc12` ; test system Cytochrome P450 2A6 (Homo sapiens, UniProt P11509); pIC50: < 4.60

# lookup: `Cc1cccc2ccccc12` on Cytochrome P450 2A6 (Homo sapiens, UniProt P11509), pIC50 = 4.47

Cytochrome P450 2A6 (Homo sapiens, UniProt P11509) data for `O=c1cc(-c2ccccc2)oc2ccc3c(c12)C=CCO3` ; its pIC50: < 4.60

Measured pIC50 (Cytochrome P450 2A6 (Homo sapiens, UniProt P11509)), entry `O=C(O)COc1c(C(=O)O)sc(-c2cccc(NC3CCN(S(=O)(=O)Cc4ccccc4)CC3)c2)c1Br` : < 3.30
